target: UniProt:P00747; experiment: Maximum percent inhibition by the compound was determined against plasmin(625 nM)
Sequence (P00747 97-580 limits assumed): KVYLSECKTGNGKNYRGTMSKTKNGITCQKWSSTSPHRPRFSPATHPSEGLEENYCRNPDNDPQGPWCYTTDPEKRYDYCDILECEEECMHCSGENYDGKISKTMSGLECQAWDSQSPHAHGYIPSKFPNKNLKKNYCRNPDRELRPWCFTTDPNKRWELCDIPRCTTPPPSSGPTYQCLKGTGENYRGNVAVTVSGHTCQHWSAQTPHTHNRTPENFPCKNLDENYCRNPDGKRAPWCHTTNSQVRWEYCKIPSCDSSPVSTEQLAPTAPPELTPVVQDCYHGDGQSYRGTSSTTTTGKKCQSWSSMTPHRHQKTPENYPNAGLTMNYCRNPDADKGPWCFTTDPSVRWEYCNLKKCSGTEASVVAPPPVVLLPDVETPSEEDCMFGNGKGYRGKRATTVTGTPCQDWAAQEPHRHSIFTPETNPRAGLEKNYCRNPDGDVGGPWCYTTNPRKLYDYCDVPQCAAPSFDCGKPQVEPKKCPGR
Sequence (P00747 581-810 limits assumed): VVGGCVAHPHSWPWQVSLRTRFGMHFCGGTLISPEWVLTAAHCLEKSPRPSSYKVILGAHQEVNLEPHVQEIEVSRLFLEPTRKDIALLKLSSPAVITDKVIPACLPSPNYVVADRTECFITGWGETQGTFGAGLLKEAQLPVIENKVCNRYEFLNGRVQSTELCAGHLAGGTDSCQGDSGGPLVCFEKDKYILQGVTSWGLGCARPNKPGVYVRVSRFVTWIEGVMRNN
MEASURED_PROPERTY: inhibition (%)

Report measured inhibition; entry is C=C1CCC(c2ccc(NC(=N)N)cc2)C(=O)O1 (centres undefined)
99

Provide one value: measured inhibition of N=C(N)Nc1ccc(C2CC(=O)O/C(=C/I)C2)cc1 (centres undefined)
97

Provide one value: measured inhibition of N=C(N)Nc1ccc(C2CC/C(=C\I)OC2=O)cc1 (centres undefined)
95

Quickly give me recorded inhibition for C=C1CC(c2ccc(NC(=N)N)cc2)CC(=O)O1 (centres undefined)
79

====

Consider the following Rate values measured on Urokinase-type plasminogen activator (Homo sapiens, UniProt P00749).
MEASURED_PROPERTY: Rate (ka/Ks)

Look over these answered cases.
Consider the compound C=C1CCC(c2ccc(NC(=N)N)cc2)C(=O)O1 (centres undefined) . State its measured Rate.
1180

Name the recorded Rate of the item C=C1CC(c2ccc(NC(=N)N)cc2)CC(=O)O1 (centres undefined) in your answer.
2

[P] N=C(N)Nc1ccc(C2CC/C(=C\I)OC2=O)cc1 (centres undefined)
[Q] N=C(N)Nc1ccc(C2CC(=O)O/C(=C/I)C2)cc1 (centres undefined)
Which value of Rate is numerically greater: that of P or that of Q ? Which one? Tell me its label.
P
(P: 117 ka/Ks, Q: 0.33 ka/Ks)

====

assay: Ratio of initial inhibitor concentration to initial Plasmin concentration
MEASURED_PROPERTY: Ratio (Io/Eo)

Using the record for C=C1CC(c2ccc(NC(=N)N)cc2)CC(=O)O1 (centres undefined) , state its measured Ratio.
16

Complete the entry with Ratio for N=C(N)Nc1ccc(C2CC/C(=C\I)OC2=O)cc1 (centres undefined)
16

Quick one: give measured Ratio for C=C1CCC(c2ccc(NC(=N)N)cc2)C(=O)O1 (centres undefined)
16

Please supply the value of reported Ratio for the item N=C(N)Nc1ccc(C2CC(=O)O/C(=C/I)C2)cc1 (centres undefined)
16

Values from ChEMBL document CHEMBL1125346
